Consider the following molecules and their measured inhibition readings.
target.entity: Glucose transporter (Leishmania mexicana) (UniProt O61059)
assay.text: ST_JUDE_LEISH: Cytotoxicity at 2uM final concentration against transgenic Leishmania Mexicana promastigotes LmGT2 that are glucose transport deficient and complemented with the L. Mexicana glucose transporter 2. Activity is measured by DNA content using SYBR green in vitro
Assay type: functional
Hi! Could you send only the number? It should be in %, unit omitted.

molecule	observed.result
c1ccc(CCNc2ncnc3c2[nH]c2ccccc23)cc1	3.69

For reference, reported inhibition for CCN(CCS(C)(=O)=O)Cc1ccc(-c2ccc3ncnc(Nc4ccc(OCc5cccc(F)c5)c(Cl)c4)c3c2)o1 stands at -0.09

For reference, reported inhibition for N=C1N=C(N)NC2(CCCCC2)N1OCCCOc1cccc2ccccc12 stands at 37.9

For reference, reported inhibition for COc1cc2nccc(Nc3ccc(NC(=O)c4ccc(C)cc4)c(O)c3)c2cc1OC stands at 2.92

For reference, reported inhibition for CCOc1ccc(Nc2nc(N)c3ccccc3n2)cc1 stands at 6.25

For reference, reported inhibition for CC(=O)Nc1ncc(C(=O)Nc2cccc(-c3cccc(-c4nc5ccccc5[nH]4)c3)c2)s1 stands at 6.64

For reference, reported inhibition for Cc1cccc(C(=O)Nc2ccc(N3CCCN(Cc4cccc(O)c4)CC3)cc2)c1 stands at 2.78

For reference, reported inhibition for CC(C)(CN)c1nc(-c2ccc(Br)c(O)c2)c(-c2ccncc2)[nH]1 stands at 2.58

For reference, reported inhibition for CCCc1cc(Cc2cnc(N)nc2N)cc(CCC)c1OC stands at -2.49

###

target.entity: Hexose transporter 1 (Plasmodium falciparum) (UniProt O97467)
assay.text: ST_JUDE_LEISH: Cytotoxicity at 2uM final concentration against transgenic Leishmania Mexicana promastigotes LmPfHT that are glucose transport deficient and complemented with the Plasmodium falciparum hexose transporter. Activity is measured by DNA content using SYBR green in vitro
Assay type: functional
measured.quantity: inhibition (%)
Hi! Could you send only the number? It should be in %, unit omitted.

molecule	target.entity	observed.result
CC(C)CCCC(C)(C)NC[C@@H](O)[C@H](Cc1ccccc1)NC(=O)c1cccc(OCC2CC2)c1	Hexose transporter 1 (Plasmodium falciparum) (UniProt O97467)	1.25
CC(C)CNCc1cccc(-c2cccc(CNC3CCN(Cc4ccccc4)CC3)c2)c1	Hexose transporter 1 (Plasmodium falciparum) (UniProt O97467)	2.58
N=C(N)NN=CC(=O)Nc1ccc(Br)cc1	Hexose transporter 1 (Plasmodium falciparum) (UniProt O97467)	-4.24

Tested system Hexose transporter 1 (Plasmodium falciparum) (UniProt O97467); inhibition recorded for O=C(/C=C/c1ccc(Cl)c(Cl)c1)NCCCCCN1CCC(n2c(=O)[nH]c3ccccc32)CC1 was 7.32

Tested system Hexose transporter 1 (Plasmodium falciparum) (UniProt O97467); inhibition recorded for Cc1cc(=NN=CC=Cc2ccccc2)c2ccc(F)cc2[nH]1 was 2.91

Tested system Hexose transporter 1 (Plasmodium falciparum) (UniProt O97467); inhibition recorded for COCCN1CCN(Cc2cccc(-c3ccc(-c4nc5ccccc5[nH]4)cc3)c2)CC1 was -3.13

Tested system Hexose transporter 1 (Plasmodium falciparum) (UniProt O97467); inhibition recorded for O=C1NC(C(=O)Nc2ccccc2)C(c2ccccc2)S1 (centres undefined) was -1.96

Tested system Hexose transporter 1 (Plasmodium falciparum) (UniProt O97467); inhibition recorded for CCC1CCCCN1S(=O)(=O)c1ccc(OC)c(N2CCN(C(=O)C(Cl)(Cl)Cl)CC2)c1 (centres undefined) was 6.41

Tested system Hexose transporter 1 (Plasmodium falciparum) (UniProt O97467); inhibition recorded for COc1ccc(-c2cccc(NC(=O)c3ccc(C#N)cc3)c2)cc1CN1CCN(C)CC1 was 14.8

Tested system Hexose transporter 1 (Plasmodium falciparum) (UniProt O97467); inhibition recorded for Cc1nc2ccccc2n1C1CC2CCC(C1)N2CCC1(c2ccccc2)CCN(C(=O)Nc2ccc(C(F)(F)F)cc2)CC1 (centres undefined) was 4.07

Tested system Hexose transporter 1 (Plasmodium falciparum) (UniProt O97467); inhibition recorded for COc1cccc2c(NN=Cc3ccc(Cl)cc3)ccnc12 was 2.54

Tested system Hexose transporter 1 (Plasmodium falciparum) (UniProt O97467); inhibition recorded for Cc1cc(NCC2CCN(CC3CCCCC3)C2)nc(Nc2ccc(Br)cc2)n1 (centres undefined) was 7.88

Tested system Hexose transporter 1 (Plasmodium falciparum) (UniProt O97467); inhibition recorded for Cc1ccc(CON2C(N)=NC(N)=NC23CCCCC3)c2ccccc12 was 2.42

Tested system Hexose transporter 1 (Plasmodium falciparum) (UniProt O97467); inhibition recorded for CNC(=O)CC(=O)NCCc1ccc(Cl)cc1 was 1.17

Tested system Hexose transporter 1 (Plasmodium falciparum) (UniProt O97467); inhibition recorded for COc1ccc(CCn2c(=N)c(C(=O)NCc3ccc(C)cc3)cc3c(=O)n4ccccc4nc32)cc1 was 3.72

Tested system Hexose transporter 1 (Plasmodium falciparum) (UniProt O97467); inhibition recorded for Cc1cccc2nc(-c3cccc(-c4ccc(NC(=O)Nc5ccc6c(c5)OCO6)cc4)c3)[nH]c12 was 0.05

Tested system Hexose transporter 1 (Plasmodium falciparum) (UniProt O97467); inhibition recorded for Cc1cccc2nc(-c3ccc(-c4ccc(CN5CCN(C6CCN(C)CC6)CC5)cc4)cc3)[nH]c12 was 1.31

Tested system Hexose transporter 1 (Plasmodium falciparum) (UniProt O97467); inhibition recorded for COc1ccc2nc(C)cc(Nc3ccc(Oc4ccc(Br)c5ccccc45)c(Cl)c3)c2c1 was 8.7

Tested system Hexose transporter 1 (Plasmodium falciparum) (UniProt O97467); inhibition recorded for CCC[C@@H]([C@@H](CC1CCCCC1)C(=O)N[C@H](C(=O)Nc1nccs1)[C@H](C)O)N(O)C=O was 1.35
